Tested on: apyrase
Experiment: Screen for apyrase inhibitors (Method 1, in vitro phosphate-release absorbance assay)
Format: biochemical
Details: inhibitor conc at 1 mM stock, 1 hr room temperature, absorbance 630 nm; rounded average of two assay results
# maps each entry to its % Inhibition of Apyrase
QUANTITY KIND: % Inhibition of Apyrase (%)

> print(dat)
                                   molecule  measured.value
1  O=C(Nc1ccccc1Cl)c1cccc(S(=O)(=O)Nc2ccc(Cl)cc2)c1              69
2  O=C(Nc1cccc(S(=O)(=O)Nc2ccccc2Cl)c1)c1ccc([N+](=O)[O-])s1              55
3  CS(=O)(=O)c1ccc2c(c1)N(C(=O)c1cccc(S(=O)(=O)N3CCc4ccccc43)c1)CCC2              25
4  Cc1c(NC(=O)c2cccc(S(=O)(=O)Nc3ccc4c(c3)OCO4)c2)cccc1[N+](=O)[O-]              60
5  NC(=O)C1CCCN(C(=O)c2cccc(S(=O)(=O)Nc3ccc(Br)cc3)c2)C1 (centres unmarked)              34
6  O=C(Nc1ccc(F)c(F)c1)c1cccc(S(=O)(=O)Nc2ccc3c(c2)OCO3)c1              68
7  O=C(Nc1cccc(NS(=O)(=O)c2ccc(Br)cc2Cl)c1)c1ccco1              66
8  COc1ccc(NS(=O)(=O)c2cccc(NC(=O)c3n[nH]c(=O)c4ccccc34)c2)cc1              53

Every entry's value here was drawn from patent US12685312B2.
